assay: Estimation of concentration in plasma after oral administration in rats using ex vivo bioassay method; conditions: male, Wistar, rat, 2 hours after oral administration, estimated by ex vivo bioassay from standard curve
testReadout: concentration at 2 h (µM)

See these solved cases before continuing.
compound: CNS(=O)(=O)NC(=O)c1nc(CN(CCCc2ccccc2)C(=O)c2cc(OC)c(C3CC3)c(OC)c2)sc1C
concentration at 2 h, µM: 2.1
//
compound: COc1ccc(CC(=O)N(CCCc2ccccc2)Cc2nc(C(=O)NS(=O)(=O)N(C)C)c(C)s2)c(OC)c1
concentration at 2 h, µM: 8.9
//
compound: COc1ccc(C(O)C(=O)N(CCCc2ccccc2)Cc2nc(C(=O)NS(N)(=O)=O)c(C)s2)cc1 (stereo not shown)
concentration at 2 h, µM: 4.5
//
compound: COc1ccc(C(O)C(=O)N(CCCc2ccccc2)Cc2nc(C(=O)NS(=O)(=O)N(C)C)c(C)s2)c(F)c1 (stereo not shown)
concentration at 2 h, µM: 6.5
//
compound: CCc1c(OC)cc(C(=O)N(CCCc2ccccc2)Cc2nc(C(=O)NS(=O)(=O)NC)c(C)s2)cc1OC
concentration at 2 h, µM: 5.2

P: COc1cc(C(=O)N(CCCc2ccccc2)Cc2nc(C(=O)N(C)S(N)(=O)=O)cs2)cc(OC)c1C
Q: COc1ccc(C2(C(=O)N(CCCc3ccccc3)Cc3nc(C(=O)NS(=O)(=O)N(C)C)c(C)s3)CC2)cc1
IN: Would you mind telling me which has the lower recorded concentration at 2 h between P and Q ? Select an item and report its label.
OUT: Q
(Q: 1.8 µM, P: 8.3 µM)
